# Test system: TK-10
# test.method.notes: NCI tumour cell line growth inhibition, 48 h
Active and inactive are the calls of the source. No stated cut-off is given here; in the data, active = GI50 up to about 1.1 µM and inactive = higher.
assay.metric: GI50

compound	assayed.target	GI50
O=C(N/N=C(\c1ccccc1)c1ccccn1)NC1CCCCC1	TK-10	26.9 µM (inactive)
CCN(CC)CCNC(=O)c1nn(C)c(=S)[nH]c1=S	TK-10	> 100 µM (inactive)
CCN(CC)c1ccc(/N=C2\C=C(Cl)C(=O)c3ncccc32)c(C)c1	TK-10	4.37 µM (inactive)
COc1cc(=O)n2c3ccccc3n(C)c2c1C#N	TK-10	> 100 µM (inactive)
N#Cc1ccc(-n2c3ccccc3c3ccc4c(c32)C(=O)C=CC4=O)cc1	TK-10	3.4 µM (inactive)
COC(=O)CSc1nc2[nH]c(SC)c(C(N)=O)c2c(=O)n1-c1ccccc1	TK-10	> 10 µM (inactive)
C/C(=N\O)c1cccc[n+]1Cc1ccccc1	TK-10	> 100 µM (inactive)
CC(O)C1OC(n2ccc(=O)[nH]c2=O)CC1n1cncn1 (configuration not stated)	TK-10	> 100 µM (inactive)
C/C(=N\Nc1nc2ccccc2s1)c1cccc[n+]1[O-]	TK-10	17 µM (inactive)
CCN(CC)C(=O)CCCCCCCCC1CO1 (configuration not stated)	TK-10	> 100 µM (inactive)

Which GI50 is listed for O=C1[C@H]2ON(c3ccccc3)C(c3cccc([N+](=O)[O-])c3)[C@H]2C(=O)N1c1ccc(Cc2ccc(N3C(=O)[C@@H]4ON(c5ccccc5)C(c5cccc([N+](=O)[O-])c5)[C@@H]4C3=O)cc2)cc1 (some centres not stated) ?
> 100 µM (inactive)

Fill blank: measured GI50 of the compound COc1cc2c(cc1OC)[C@@H]1[C@H](C#N)C(=O)C(C)(C)N1CC2 is ____.
> 100 µM (inactive)

Given the entry O=C(Nc1ccccc1)N1C(c2ccccc2)=N[C@@H](c2ccccc2)[C@@H]1c1ccccc1 , report its measured GI50.
31.3 µM (inactive)

====

# System: OVCAR-4
# test.method.notes: NCI tumour cell line growth inhibition, 48 h
The source made the active and inactive calls. Rule as the data show it: active = GI50 up to about 1.1 µM and inactive = higher.
assay.metric: GI50

Please review the following examples before continuing.
compound	assay.metric	result
CC(=O)OCC1OC(OC2CC3C(C)(C)C(O)CC[C@]3(C)C3CCC45CC4(CC[C@H]5C(C)CC(O)C4OC4(C)C)[C@]23C)C(O)C(O)C1O (stereo not given in full)	GI50	8.73 µM (inactive)
CS(=O)(=O)Nc1ccc2c(c1)oc(=O)c1ccccc12	GI50	> 100 µM (inactive)
COC1=C(OC)C(=O)c2cc(SC)c(=O)c(SC)cc2C1=O	GI50	12.2 µM (inactive)
O=C1c2c(Br)sc(Br)c2[C@@H](Cl)[C@H]1Cl	GI50	18.2 µM (inactive)
CCCSc1nc(-c2ccc(OC)cc2)c(C#N)c(=O)n1C1OC(COC(C)=O)C(OC(C)=O)C(OC(C)=O)C1OC(C)=O (stereo not given)	GI50	> 100 µM (inactive)
Cc1ccc(/C=N/Nc2cnccn2)s1	GI50	> 100 µM (inactive)

# query: GI50 of entry N#CC(NNC(=O)c1ccccc1O)c1ccccc1 (stereo not given)
3.85 µM (inactive)

# lookup: GI50 of CC1(CC(=O)O)OC2CCCCCC2O1.NCc1ccccc1 (stereo not given)
> 100 µM (inactive)

Consider the compound shown here: COc1cc2c(cc1O)C1CC(CC3CCCCN31)OC(=O)/C=C\c1ccc(O)c-2c1 (stereo not given) What is its recorded GI50?
27.3 µM (inactive)

Which GI50 is listed for C=C1CCCCCCCCCCC12SCCC2CCCCSC (stereo not given) ?
39.8 µM (inactive)
